meta.source: patent US8114862B2

Assay: in vitro
Details: human
TEST_READOUT: EC50 at 4 h (µM)
Give bare numbers, in µM.

**Q:** Sample CN[C@@H]1C[C@H]2O[C@@](C)([C@@H]1OC)n1c3ccccc3c3c4c(c5c6ccccc6n2c5c31)C(=O)NC4 [Staurosporine] — what was its EC50 at 4 h?
**A:** 15

* * *

Molecular target: UniProt Q8TDU6
Test: Direct comparison 6-ethyl vs 6-methyl 23-methyl cholic acid: TGR5
Type: cell-based
Details: first experiment; read-out: TGR5 I exp EC50
TEST_READOUT: EC50 (nM)
Numbers only, in nM.

**Q:** # query: EC50 of entry C[C@H]1[C@@H](O)[C@@H]2[C@H](C[C@H](O)[C@]3(C)[C@@H]([C@H](C)C[C@H](C)C(=O)O)CC[C@@H]23)[C@@]2(C)CC[C@@H](O)C[C@@H]12 [Ih3]
**A:** 1700

* * *

Target: TGR5 (Homo sapiens, UniProt Q8TDU6)
Sequence (Q8TDU6 1-330): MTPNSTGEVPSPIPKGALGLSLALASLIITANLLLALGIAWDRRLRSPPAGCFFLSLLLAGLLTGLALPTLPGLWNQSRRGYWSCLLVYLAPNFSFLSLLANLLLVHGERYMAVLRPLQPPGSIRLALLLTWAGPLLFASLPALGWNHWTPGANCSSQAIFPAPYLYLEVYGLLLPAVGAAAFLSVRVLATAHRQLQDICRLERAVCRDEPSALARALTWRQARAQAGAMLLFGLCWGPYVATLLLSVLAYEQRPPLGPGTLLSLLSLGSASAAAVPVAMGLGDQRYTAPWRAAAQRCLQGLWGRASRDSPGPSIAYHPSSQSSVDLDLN
Test: Direct comparison 6-ethyl vs 6-methyl 23-methyl cholic acid: TGR5
Type: cell-based
Conditions: second experiment; read-out: TGR5 II exp EC50
TEST_READOUT: EC50 (µM)
Give bare numbers, in µM.

**Q:** For C[C@H]1[C@@H](O)[C@@H]2[C@H](C[C@H](O)[C@]3(C)[C@@H]([C@H](C)C[C@H](C)C(=O)O)CC[C@@H]23)[C@@]2(C)CC[C@@H](O)C[C@@H]12 , what is its reported EC50?
**A:** 3

* * *

Target: UniProt:Q8TDU6
Experiment: CRE-driven luciferase reporter assay in TGR5-transfected CHO cells
Type: cell-based
Parameters: host or cells: CHO cells
Conditions: Table 3
TEST_READOUT: EC50 (µM)
Numbers only, in µM.

**Q:** I have this molecule here, C[C@H]1[C@@H](O)C2C3CC[C@H]([C@H](C)C[C@H](C)C(=O)O)[C@@]3(C)[C@@H](O)CC2[C@@]2(C)CC[C@@H](O)C[C@@H]12 (stereo partly shown) , and I need its recorded EC50.
**A:** 0.8

* * *

Assay: Biliary secretion and metabolism in bile fistula rat, id and iv infusion
Details: rat, bile, other: duodenal infusion (id), 1 μmol/kg/min
TEST_READOUT: fraction unbound at 4 h

**Q:** I'd like to know its fraction unbound at 4 h. The compound in question is C[C@H](CCC(=O)O)[C@H]1CC[C@H]2[C@@H]3[C@H](O)C[C@@H]4C[C@H](O)CC[C@]4(C)[C@H]3CC[C@]12C [CDCA, ChenoDeoxyCholicAcid]
**A:** 0.03

* * *

Assay: Biliary secretion and metabolism in bile fistula rat, id and iv infusion
Settings: rat, in vivo, iv, 1 μmol/kg/min
TEST_READOUT: fraction unbound at 4 h
Give bare numbers.

CC[C@H]1[C@@H](O)[C@@H]2[C@H](C[C@H](O)[C@]3(C)[C@@H]([C@H](C)C[C@@H](C)C(=O)O)CC[C@@H]23)[C@@]2(C)CC[C@@H](O)C[C@@H]12 :: 0.65

Next, consider the following compound.
**Q:** Param item = CC[C@H]1[C@@H](O)[C@@H]2[C@H](C[C@H](O)[C@]3(C)[C@@H]([C@H](C)C[C@H](C)C(=O)O)CC[C@@H]23)[C@@]2(C)CC[C@@H](O)C[C@@H]12 ; retrieve measured fraction unbound at 4 h.
**A:** 0.93
